// MRT lookup, one value per entry
- Test: Pharmacokinetics assay in SD rats, intragastric administration, plasma by LC/MS/MS
- Assay type: in vivo, Sprague-Dawley (SD) rats
- Details: both sexes, Sprague-Dawley, rat, plasma, po, 3.0 mg/kg, read-out: Mean Residence Time MRT
Give the value in h but do not write h after it.

>  <Molecular string>
O=C(O)C1(Sc2ccnc3ccccc23)CCC1

>  <Observed>
3.15

$$$$

Request: Quick one: MRT for O=C(O)C1(Sc2ccnc3ccc(Br)cc23)CCC1 ?
Response: 8.15

###

- Test: Pharmacokinetics assay in SD rats, intragastric administration, plasma by LC/MS/MS
- Type: in vivo, Sprague-Dawley (SD) rats
- Details: both sexes, Sprague-Dawley, rat, plasma, po, 3.0 mg/kg, read-out: Apparent Distribution Volume Vz/F
Assay metric: Vd/F (L/kg)
Give your result in L/kg as a bare value.

Below, 2 compounds whose answers are already recorded.
>  <Compound>
O=C(O)C1(Sc2ccnc3ccc(C(F)(F)F)cc23)CCC1 [Example 2]

>  <Units of measure>
L/kg

>  <Vd/F>
1.21

$$$$
>  <Compound>
O=C(O)C1(Sc2ccnc3ccccc23)CCC1 [Example 1]

>  <Units of measure>
L/kg

>  <Vd/F>
0.652

$$$$

Request: Need Vd/F, item O=C(O)C1(Sc2ccnc3ccc(Br)cc23)CCC1 [Example 3]
Response: 0.878

###

- Assayed target: hURAT1 (Homo sapiens (Human))
- Sequence (Q96S37 whole entry): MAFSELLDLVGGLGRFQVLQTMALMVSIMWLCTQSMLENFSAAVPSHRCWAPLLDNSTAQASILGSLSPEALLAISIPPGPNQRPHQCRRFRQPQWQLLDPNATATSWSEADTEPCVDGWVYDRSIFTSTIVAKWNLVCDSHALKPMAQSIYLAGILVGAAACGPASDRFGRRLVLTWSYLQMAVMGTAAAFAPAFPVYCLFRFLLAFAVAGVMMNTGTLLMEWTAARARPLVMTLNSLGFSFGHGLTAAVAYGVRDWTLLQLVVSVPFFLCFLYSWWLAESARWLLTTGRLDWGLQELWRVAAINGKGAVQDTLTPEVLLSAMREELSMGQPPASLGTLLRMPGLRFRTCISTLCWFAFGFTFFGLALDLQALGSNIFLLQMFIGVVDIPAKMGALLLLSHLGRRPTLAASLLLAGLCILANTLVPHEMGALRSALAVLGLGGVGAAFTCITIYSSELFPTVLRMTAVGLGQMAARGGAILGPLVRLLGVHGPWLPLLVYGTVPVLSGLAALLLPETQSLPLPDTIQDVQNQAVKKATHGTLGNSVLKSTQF
- Test: Assay for inhibiting URAT1: uptake of 14C-uric acid in HEK293/hURAT1 cells
- Details: 14C-uric acid 11.57 μM, 12 minutes at room temperature
Assay metric: pIC50
Kindly note that pIC50 refers to -log10 of the concentration in mol/L and answer with the value alone.

Take a look at these entries with their results.
>  <Molecular string>
O=C(O)C1(Sc2ccnc3ccc(-c4ccc(F)cc4)cc23)CCC1

>  <pIC50>
6.80

$$$$
>  <Molecular string>
O=C(O)C1(Sc2ccnc3ccc(-c4cccc(F)c4)cc23)CCC1

>  <pIC50>
6.48

$$$$
>  <Molecular string>
N#Cc1ccc(SC2(C(=O)O)CCC2)c2ccccc12

>  <pIC50>
6.03

$$$$
>  <Molecular string>
O=C(O)C1(Sc2ccnc3ccc(Br)cc23)CCC1

>  <pIC50>
7.72

$$$$
>  <Molecular string>
O=C(O)C1(Sc2ccnc3ccc(-c4ccccc4C(F)(F)F)cc23)CCC1

>  <pIC50>
6.94

$$$$

Okay, next one:
Request: Suppose we examine the compound Cc1ccc2nccc(SC3(C(=O)O)CCC3)c2c1 ; what pIC50 value has been reported?
Response: 6.46

###

- Test: Pharmacokinetics assay in SD rats, intragastric administration, plasma by LC/MS/MS
- Assay type: in vivo, Sprague-Dawley (SD) rats
- Details: both sexes, Sprague-Dawley, rat, plasma, po, 3.0 mg/kg, read-out: Half-Life T½ (converted)
Assay metric: half-life (h)
Unit h implied. Number only.

>  <Molecular string>
O=C(O)C1(Sc2ccnc3ccc(Br)cc23)CCC1

>  <half-life, h>
5.35

$$$$
>  <Molecular string>
O=C(O)C1(Sc2ccnc3ccc(C(F)(F)F)cc23)CCC1

>  <half-life, h>
8.83

$$$$

Next:
Request: Find the recorded half-life belonging to O=C(O)C1(Sc2ccnc3ccccc23)CCC1 and report it.
Response: 2.84
